Hi there, I'd appreciate the recorded MIC for every entry that follows.
# Test system: Streptococcus pneumoniae
# measurementNotes: Antibacterial activity against erythromycin-resistant Streptococcus pneumoniae A22072 expressing mef gene by broth microdilution method
# Assay type: functional
Express the result in mg/L but write the number alone.

### Prompt Name the reported MIC value associated with the compound "CC[C@H]1OC(=O)[C@H](C)[C@@H](O[C@H]2C[C@@](C)(OC)[C@@H](O)[C@H](C)O2)[C@H](C)[C@@H](O[C@@H]2O[C@H](C)C[C@H](N(C)C)[C@H]2O)[C@](C)(O)C[C@@H](C)CN(C)[C@H](C)[C@@H](O)[C@]1(C)O"
### Response 4

### Prompt Name the reported MIC value associated with the compound "CC[C@H]1OC(=O)[C@H](C)[C@@H](O[C@H]2C[C@@](C)(OC)[C@@H](O)[C@H](C)O2)[C@H](C)[C@@H](O[C@@H]2O[C@H](C)C[C@H](N(C)C)[C@H]2O)[C@](C)(OC)C[C@@H](C)C(=O)[C@H](C)[C@@H](O)[C@]1(C)O"
### Response 4

### Prompt Name the reported MIC value associated with the compound "CC[C@H]1OC(=O)[C@H](C)[C@@H](O[C@H]2C[C@@](C)(OC)[C@@H](OC(=O)NCCCCNC(=O)c3ccc(OC)cc3)[C@H](C)O2)[C@H](C)[C@@H](O[C@@H]2O[C@H](C)C[C@H](N(C)C)[C@H]2O)[C@](C)(O)C[C@@H](C)CN(C)[C@H](C)[C@@H](OC(=O)NCCc2ccc(F)cc2)[C@]1(C)O"
### Response 0.5

### Prompt Name the reported MIC value associated with the compound "CC[C@H]1OC(=O)[C@H](C)[C@@H](O[C@H]2C[C@@](C)(OC)[C@@H](OC(=O)NCCCCNC(=O)c3ccc(OC)cc3)[C@H](C)O2)[C@H](C)[C@@H](O[C@@H]2O[C@H](C)C[C@H](N(C)C)[C@H]2O)[C@](C)(O)C[C@@H](C)CN(C)[C@H](C)[C@@H](OC(=O)NCc2ccc(F)c(F)c2)[C@]1(C)O"
### Response 0.12

### Prompt Name the reported MIC value associated with the compound "CC[C@H]1OC(=O)[C@H](C)[C@@H](O[C@H]2C[C@@](C)(OC)[C@@H](OC(=O)NNC(=O)c3ccc(Cl)cc3)[C@H](C)O2)[C@H](C)[C@@H](O[C@@H]2O[C@H](C)C[C@H](N(C)C)[C@H]2O)[C@](C)(O)C[C@@H](C)CN(C)[C@H](C)[C@@H](OC(=O)NCCc2ccccc2)[C@]1(C)O"
### Response 0.12
